target: T1, Human CD3 on Human CD3+ Jurkat cells (human, UniProt P07766 23-207); experiment: cell binding hCD3, fold over background
T1 construct: whole, on cells; CD3 complex on cells; also called hCD3
T1 sequence (P07766 23-207): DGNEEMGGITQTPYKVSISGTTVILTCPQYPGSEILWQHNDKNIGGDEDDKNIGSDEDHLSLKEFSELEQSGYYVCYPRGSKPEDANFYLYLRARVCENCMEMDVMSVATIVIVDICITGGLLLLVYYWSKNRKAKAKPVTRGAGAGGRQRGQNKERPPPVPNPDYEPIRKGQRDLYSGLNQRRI
experimental endpoint: Cell Binding hCD3 (FOB)
Numeric answer only, unit FOB assumed.

Use these answered entries as a reference point.
ADI-45983 (antibody, V domains shown, also called Ab20) VH: QVQLVQSGAEVKKPGASVKVSCKASGFNIKDYYMHWVRQAPGQRLEWIGWIDLENANTVYDAKFQGRVTITRDTSAGTAYMELSSLRSEDTAVYYCARDAYGRYFYDVWGQGTLVTVSS VL: DIVMTQSPDSLAVSLGERATINCKSSQSLLNARTMKNYLAWYQQKPGQPPKLLIYAASTRESGVPDRFSGSGSGTDFTLTISSLQAEDVAVYYCAQSYFRRTFGGGTKVEIK ... 24
ADI-45971 (antibody, V domains shown, also called Ab7) VH: QVQLVQSGAEVKKPGATVKVSCKASGFNIKDYYIHWVRQAPGQRLEWIGWIDLENANTVYDAKFQGRVTITRDTSASTAYMELSSLRSEDTAVYYCARDAYGRYFYDVWGQGTLVTVSS VL: DIVMTQSPDSLAVSLGERATINCKSSQSLLNARTRKNYLAWYQQKPGQPPKLLIYWASTRESGVPDRFSGSGSGTDFTLTISSLQAEDVAVYYCVQSYFRRTFGGGTKVEIK ... 21
ADI-45964 (antibody, V domains shown, also called Ab27) VH: QVQLVQSGAEVKKPGASVKVSCKASGFNIKDYYIHWVRQAPGQRLEWIGWIDLENANTVYDAKFQGRVTITRDTSASTAYMELSSLRSEDTAVYYCARDAYGRYFYDVWGQGTLVTVSS VL: DIVMTQSPDSLAVSLGERATINCKSSQSLLNARTGKNYLAWYQQKPGQPPKLLIYWASTRESGVPDRFSGSGSGTDFTLTISSLQAEDVAVYYCAQSYFRRTFGGGTKVEIK ... 56

Query :: Suppose we examine the binder ADI-46376 (antibody, V domains shown, also called Ab39) VH: QVQLVQSGAEVKKPGASVKVSCKASGFNIKDYYMHWVRQAPGQRLEWIGWIDLENANTVYDAKLQGRVTITRDTSASTAYMELSSLGSEDTAVYYCARDAYGRYFYDVWGQGTPVTVSS VL: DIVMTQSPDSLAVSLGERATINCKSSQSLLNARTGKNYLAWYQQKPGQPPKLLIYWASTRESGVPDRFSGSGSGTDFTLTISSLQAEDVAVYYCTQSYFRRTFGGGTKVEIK ; what Cell Binding hCD3 (FOB) value has been reported?
Result :: 4

Query :: # repeat for ADI-45967 (antibody, V domains shown, also called Ab3) VH: QVQLVQSGAEVKKPGASVKVSCKASGFNIKDYYMHWVRQAPGQRLEWIGWIDLENANTVYDAKFQGRVTIARDTSASTVYMELSSLRSEDTAVYYCARDAYGRYFYDVWGQGTLVTVSS VL: DIVMTQSPDSLAVSLGERAIINCKSSQSLLNARTGKNYLAWYQQKPGQPPKLLIYWASTRESGVPDRFSGSGSGTDFTLTISSLQAEDVAVYYCTQSYFRRTFGGGTKVEIK
Result :: 40
